Measured IC50, listed per entry.
# Test Target: HCV RNA-dependent RNA polymerase NS5B (Δ21) (Hepatitis C virus genotype 1b, UniProt P26663)
# Sequence (P26663 2420-2989, stated change not applied): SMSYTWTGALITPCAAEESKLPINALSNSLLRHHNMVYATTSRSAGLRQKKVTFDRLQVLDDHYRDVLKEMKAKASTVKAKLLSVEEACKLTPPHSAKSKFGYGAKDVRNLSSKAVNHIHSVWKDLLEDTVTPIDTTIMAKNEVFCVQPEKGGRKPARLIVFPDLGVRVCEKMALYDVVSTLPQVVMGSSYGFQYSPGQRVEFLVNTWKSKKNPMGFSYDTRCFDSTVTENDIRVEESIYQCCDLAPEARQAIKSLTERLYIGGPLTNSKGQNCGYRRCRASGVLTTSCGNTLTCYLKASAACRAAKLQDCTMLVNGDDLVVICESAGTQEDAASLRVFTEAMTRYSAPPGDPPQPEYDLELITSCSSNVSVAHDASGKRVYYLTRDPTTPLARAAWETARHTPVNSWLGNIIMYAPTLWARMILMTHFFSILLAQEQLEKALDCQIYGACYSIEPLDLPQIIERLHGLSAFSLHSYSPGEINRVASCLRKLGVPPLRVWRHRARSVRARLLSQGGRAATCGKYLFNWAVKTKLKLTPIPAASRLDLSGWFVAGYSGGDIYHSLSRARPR
# Measurement Description: Assay for HCV RNA-dependent RNA polymerase activity (SPA, [3H]-GTP incorporation)
# Assay type: biochemical
# Condition Label: Δ21 Activity (IC50 μM), 50 nM NS5B (Δ21), numeric values
Give just the number in µM; leave the unit off.

O=C(Cn1nc(C(=O)O)cc1C(=O)Nc1cc(C(F)(F)F)ccc1OCc1ccccc1)N[C@H]1CCCC[C@@H]1OCc1ccccc1 [drawing 253]; 0.041
Cc1ccc(OCC2CCC2)c(NC(=O)c2cc(C(=O)O)nn2CC(=O)N[C@H]2CCCC[C@@H]2OCc2ccccc2)c1 [drawing 248]; 0.055
Cc1ccc(OCC2CCCC2)c(NC(=O)c2cc(C(=O)O)nn2CC(=O)N[C@H]2CCCC[C@@H]2OCc2ccccc2)c1 [drawing 241]; 0.023
N#CNC(=O)c1cc(C(=O)Nc2ccccc2OCc2ccccc2)n(CC(=O)N[C@H]2CCCC[C@@H]2OCc2ccccc2)n1 [drawing 245]; 0.024
Cc1ccc(OCc2ccccc2)c(NC(=O)c2cc(-c3nnn[nH]3)nn2CC(=O)N[C@H]2CCCC[C@@H]2OCc2ccccc2)c1 [drawing 240]; 0.02

Given the compound O=C(Cn1nc(C(=O)O)cc1C(=O)Nc1cc(Cl)ccc1OCC1CCCCC1)N[C@H]1CCCC[C@@H]1OCc1ccccc1 [drawing 242] , what is its reported IC50? 0.02

Next compound up: `O=C(Cn1nc(-c2nnn[nH]2)cc1C(=O)N[C@H]1CCCC[C@@H]1OCc1ccccc1)N[C@H]1CCCC[C@@H]1OCc1ccccc1` 0.05

Next compound up: C[C@@H](NC(=O)c1cc(C(=O)N[C@H]2CCCC[C@@H]2OCc2ccccc2)n(CC(=O)N[C@H]2CCCC[C@@H]2OCc2ccccc2)n1)c1cccc2ccccc12 [drawing 246] 0.15

Next compound up: Cc1ccc(OCC2CCCCC2)c(NC(=O)c2cc(C(=O)O)nn2CC(=O)N[C@H]2CCCC[C@@H]2OCc2ccccc2)c1 [drawing 244] 0.033

Next compound up: O=C(Cn1nc(C(=O)O)cc1C(=O)Nc1ccc(F)cc1OCC1CCCCC1)N[C@H]1CCCC[C@@H]1OCc1ccccc1 [drawing 249] 0.035

Next compound up: COc1cccc(NC(=O)c2cc(C(=O)N[C@H]3CCCC[C@@H]3OCc3ccccc3)n(CC(=O)N[C@H]3CCCC[C@@H]3OCc3ccccc3)n2)c1 [drawing 255] 0.045

Next compound up: `O=C(Cn1nc(NS(=O)(=O)c2ccc(O)c(C(=O)O)c2)cc1C(=O)N[C@H]1CCCC[C@@H]1OCc1ccccc1)N[C@H]1CCCC[C@@H]1OCc1ccccc1` 0.074

Next compound up: O=C(Cn1nc(NS(=O)(=O)c2ccc(Br)cc2)cc1C(=O)N[C@H]1CCCC[C@@H]1OCc1ccccc1)N[C@H]1CCCC[C@@H]1OCc1ccccc1 [drawing 252] 0.041

* * *

# Test Target: HCV RNA-dependent RNA polymerase NS5B (Δ21) (Hepatitis C virus genotype 1b, UniProt P26663)
# Measurement Description: Assay for HCV RNA-dependent RNA polymerase activity (SPA, [3H]-GTP incorporation)
# Format: biochemical
# Condition Label: Δ21 Activity (IC50 μM), 50 nM NS5B (Δ21), class symbols
Property: IC50

CCOC(=O)c1cc(C(=O)N[C@H]2CCCC[C@@H]2OCc2ccccc2)n(CC(=O)N(C)[C@H]2CCCC[C@@H]2OCc2ccccc2)n1; > 1 µM
CCOC(=O)c1cc(C(=O)N[C@H]2CCCC[C@@H]2OCc2ccccc2)n(CC(=O)Nc2ncccc2Oc2ccccc2)n1; > 1 µM

Shifting focus to the compound that follows.
Given the compound `Cc1cc(Oc2ccccc2NC(=O)Cn2nc(C(=O)O)cc2C(=O)N[C@H]2CCCC[C@@H]2OCc2ccccc2)ccc1Cl` , what is its reported IC50? 0.05 to 0.1 µM

* * *

# Test Target: UniProt:P26663
# Measurement Description: Assay for HCV RNA-dependent RNA polymerase activity (SPA, [3H]-GTP incorporation)
# Format: biochemical
# Condition Label: Δ21 Activity (IC50 μM), 50 nM NS5B (Δ21), numeric values
# Protocol: Inhibitory activity of the present compounds against HCV RNA-dependent RNA polymerase was assayed according to the methods disclosed in United States Patent Application US2004/038993, content of which is incorporated herein by reference; and those described in Ferrari, E.; Wright-Minogue, J.; Fang, J. W. S.; Baroudy, B. M.; Lau, J. Y. N.; Hong, Z. J. Virol. 1999, 73, 1649. […]
Measured IC50, listed per entry.

Recorded IC50, per entry:
N#CNC(=O)c1cc(C(=O)N[C@H]2CCCC[C@@H]2OCc2ccccc2)n(CC(=O)N[C@H]2CCCC[C@@H]2OCc2ccccc2)n1 [drawing 254]; 0.042 µM
Cc1ccc(OCc2ccsc2)c(NC(=O)c2cc(C(=O)O)nn2CC(=O)N[C@H]2CCCC[C@@H]2OCc2ccccc2)c1 [drawing 247]; 0.032 µM
O=C(Cn1nc(C(=O)O)cc1C(=O)Nc1cc(Br)ccc1OCC1CCCCC1)N[C@H]1CCCC[C@@H]1OCc1ccccc1 [drawing 251]; 0.037 µM
O=C(Cn1nc(NS(=O)(=O)c2ccc(Cl)cc2)cc1C(=O)N[C@H]1CCCC[C@@H]1OCc1ccccc1)N[C@H]1CCCC[C@@H]1OCc1ccccc1 [drawing 250]; 0.036 µM

Report IC50 for Cc1ccc(OCC2CCCCC2)c(NC(=O)c2cc(C(=O)NC#N)nn2CC(=O)N[C@H]2CCCC[C@@H]2OCc2ccccc2)c1 [drawing 243] tested on UniProt:P26663. 0.037 µM

* * *

# Test Target: HCV RNA-dependent RNA polymerase NS5B (Δ21) (Hepatitis C virus genotype 1b)
# Measurement Description: Assay for HCV RNA-dependent RNA polymerase activity (SPA, [3H]-GTP incorporation)
# Type: biochemical
# Condition Label: Δ21 Activity (IC50 μM), 50 nM NS5B (Δ21), class symbols
Property: IC50

Recorded IC50, per entry:
O=C(Cn1nc(C(=O)Nc2ccccc2-c2ccccc2)cc1C(=O)N[C@H]1CCCC[C@@H]1OCc1ccccc1)N[C@H]1CCCC[C@@H]1OCc1ccccc1 [Compound 179]; > 1 µM
O=C(Cn1nc(NS(=O)(=O)c2ccccc2F)cc1C(=O)N[C@H]1CCCC[C@@H]1OCc1ccccc1)N[C@H]1CCCC[C@@H]1OCc1ccccc1 [Compound 37]; 0.05 to 0.1 µM
O=C(Cn1nc(C(=O)NCCO)cc1C(=O)N[C@H]1CCCC[C@@H]1OCc1ccccc1)N[C@H]1CCCC[C@@H]1OCc1ccccc1 [Compound 191]; > 1 µM
Cc1ccc(OCc2ccccc2)c(NC(=O)c2cc(-c3nnn[nH]3)nn2CC(=O)N[C@H]2CCCC[C@@H]2OCc2ccccc2)c1 [Compound 1]; < 0.05 µM

Report IC50 for O=C(Cn1nc(NS(=O)(=O)c2ccc(Br)cc2)cc1C(=O)N[C@H]1CCCC[C@@H]1OCc1ccccc1)N[C@H]1CCCC[C@@H]1OCc1ccccc1 [Compound 13] tested on HCV RNA-dependent RNA polymerase NS5B (Δ21) (Hepatitis C virus genotype 1b). < 0.05 µM

Next molecule up: CCCCC(CC)CNC(=O)c1cc(C(=O)N[C@H]2CCCC[C@@H]2OCc2ccccc2)n(CC(=O)N[C@H]2CCCC[C@@H]2OCc2ccccc2)n1 (stereo partly drawn) [Compound 194] > 1 µM

* * *

Measured IC50, listed per entry.
# Test Target: HCV RNA-dependent RNA polymerase NS5B (Δ21) (Hepatitis C virus genotype 1b, UniProt P26663)
# Measurement Description: Assay for HCV RNA-dependent RNA polymerase activity (SPA, [3H]-GTP incorporation)
# Assay type: biochemical
# Condition Label: Δ21 Activity (IC50 μM), 50 nM NS5B (Δ21), class symbols

Recorded IC50, per entry:
CCOC(=O)c1cc(C(=O)N[C@H]2CCCC[C@@H]2NCc2ccccc2)n(CC(=O)N[C@H]2CCCC[C@@H]2OCc2ccccc2)n1; > 1 µM
CC(C)NC(=O)c1cc(C(=O)N[C@H]2CCCC[C@@H]2OCc2ccccc2)n(CC(=O)N[C@H]2CCCC[C@@H]2OCc2ccccc2)n1; > 1 µM
O=C(Cn1nc(NS(=O)(=O)c2ccccc2Br)cc1C(=O)N[C@H]1CCCC[C@@H]1OCc1ccccc1)N[C@H]1CCCC[C@@H]1OCc1ccccc1; 0.05 to 0.1 µM
N#Cc1ccc(S(=O)(=O)Nc2cc(C(=O)N[C@H]3CCCC[C@@H]3OCc3ccccc3)n(CC(=O)N[C@H]3CCCC[C@@H]3OCc3ccccc3)n2)cc1; 0.05 to 0.1 µM
O=C(Cn1nc(C(=O)O)cc1C(=O)Nc1cc(Br)ccc1OCC1CCCCC1)N[C@H]1CCCC[C@@H]1OCc1ccccc1; < 0.05 µM
Cc1ccc(OCC2CCCC2)c(NC(=O)Cn2nc(C(=O)O)cc2C(=O)N[C@H]2CCCC[C@@H]2OCc2ccccc2)c1; 0.05 to 0.1 µM
C[C@@H](NC(=O)c1cc(C(=O)N[C@H]2CCCC[C@@H]2OCc2ccccc2)n(CC(=O)N[C@H]2CCCC[C@@H]2OCc2ccccc2)n1)c1cccc2ccccc12; < 0.05 µM
O=C(Cn1nc(NS(=O)(=O)c2ccc(Br)c(C(=O)O)c2)cc1C(=O)N[C@H]1CCCC[C@@H]1OCc1ccccc1)N[C@H]1CCCC[C@@H]1OCc1ccccc1; < 0.05 µM

Given the compound `COc1ccc(NC(=O)c2cc(C(=O)O)nn2CC(=O)N[C@H]2CCCC[C@@H]2OCc2ccccc2)c(OCc2ccccc2)c1` , what is its reported IC50? > 1 µM

Next compound up: `O=C(Cn1nc(C(=O)NCc2cccc3ccccc23)cc1C(=O)N[C@H]1CCCC[C@@H]1OCc1ccccc1)N[C@H]1CCCC[C@@H]1OCc1ccccc1` 0.05 to 0.1 µM

Next compound up: CC(=O)Nc1cc(C(=O)N[C@H]2CCCC[C@@H]2OCc2ccccc2)n(CC(=O)NC2CCCC[C@@H]2OCc2ccccc2)n1 (stereo partly shown) > 1 µM

Next compound up: `O=C(Cn1nc(C(=O)NCc2ccc(Cl)cc2)cc1C(=O)N[C@H]1CCCC[C@@H]1OCc1ccccc1)N[C@H]1CCCC[C@@H]1OCc1ccccc1` 0.05 to 0.1 µM

Next compound up: `Cc1ccc(OCC2CCC2)c(NC(=O)Cn2nc(C(=O)O)cc2C(=O)N[C@H]2CCCC[C@@H]2OCc2ccccc2)c1` 0.05 to 0.1 µM

Next compound up: O=C(Cn1nc(C(=O)Nc2ccc(-c3ccccc3)cc2)cc1C(=O)N[C@H]1CCCC[C@@H]1OCc1ccccc1)NC1CCCC[C@@H]1OCc1ccccc1 (stereo partly shown) > 1 µM

Next compound up: `N#CNC(=O)c1cc(C(=O)Nc2ccccc2OCc2ccccc2)n(CC(=O)N[C@H]2CCCC[C@@H]2OCc2ccccc2)n1` < 0.05 µM

Next compound up: `O=C(O)c1cc(C(=O)N[C@H]2CCCC[C@@H]2OCc2ccccc2)n(CC(=O)N2CCC[C@@H]2COCc2ccccc2)n1` > 1 µM
